# Test system: FVIII-DR2+ T cell hybridoma clones
# assay procedure: FVIII peptide specificity of T cell hybridomas generated from FVIII-/- HLA-DR2+ mice (IL-2 ELISA)
# Type: cell-based, mouse
# condition label: of 19 hybridomas specific for factor VIII; factor VIII deficient HLA-DR2 mice
# From the text: Factor VIII deficient mice expressing HLA-DR2 were immunised with factor VIII in adjuvant. Spleen cells from the immunised mice were restimulated in vitro with factor VIII and the resulting lymphoblasts were fused with BW5147, as described above. T-cell hybridomas were screened for their response to the 12 predicted peptides. Yet again, the majority of hybridomas responded to peptides DNIMV (SEQ ID NO: 11) and PRCLT (SEQ ID NO: 9). […]
measurement label: number of hybridomas responding to peptide

INSERT INTO results (residue_codes, value) VALUES
  ('DTLLIIFKNQASRPY (listed as Homo sapiens) [FVIII 15mer peptide, first AA 478]', 1),
  ('SLYISQFIIMYSLDG (listed as Homo sapiens) [FVIII 15mer peptide, first AA 2114]', 1),
  ('PPIIARYIRLHPTHY (listed as Homo sapiens) [FVIII 15mer peptide, first AA 2161]', 1),
  ('PRCLTRYYSSFVNME (listed as Homo sapiens) [FVIII 15mer peptide, first AA 545]', 6);
